target_of_assay: Quinolone resistance protein NorA (Staphylococcus aureus)
method_summary: Inhibition of NorA efflux pump in Staphylococcus aureus 1199B assessed as reduction in EtBr efflux at 50 uM incubated for 20 mins measured for 5 mins by real-time fluorometric analysis
Output Criterion met for inhibition not less than 80%; output Criterion not met otherwise.

Some solved cases for reference:
compound | label_value
CCOC(=O)c1c(C)n(Cc2ccccc2C)c2ccc(OCCCN3CCCCC3)cc12 | Criterion not met
Cc1cc2cc(OCCCN3CCCCC3)ccc2n1Cc1ccccc1 | Criterion met

Query block: Item "CCOC(=O)c1c(C)n(Cc2cccc([N+](=O)[O-])c2)c2ccc(OCCCN3CCCCC3)cc12" with inhibition of 80% or above?
Result block: Criterion met

Query block: Item "CCOC(=O)c1c(C)n(Cc2ccccc2)c2ccc(OCCCN3CCCCCC3)cc12" with inhibition of 80% or above?
Result block: Criterion not met

###

target_of_assay: Quinolone resistance protein NorA (Staphylococcus aureus, UniProt P0A0J7)
method_summary: Inhibition of NorA efflux pump in Staphylococcus aureus 1199B assessed as reduction in EtBr efflux incubated for 20 mins measured for 5 mins by real-time fluorometric analysis
This section presents compounds with their documented IC50 values.
Supply the numeric figure in µM, leaving out any unit text.

compound | unit_tag | IC50
CCOC(=O)c1c(C)n(Cc2ccccc2)c2ccc(OCCN3CCOCC3)cc12 | µM | 16.8
CCOC(=O)c1c(C)n(Cc2ccc(C)cc2)c2ccc(OCCCN3CCCCC3)cc12 | µM | 6.7
CCOC(=O)c1c(C)n(Cc2ccc(C(F)(F)F)cc2)c2ccc(OCCCN3CCCCC3)cc12 | µM | 14.1
CCOC(=O)c1c(C)n(Cc2cccc([N+](=O)[O-])c2)c2ccc(OCCCN3CCCCC3)cc12 | µM | 4.4
Cc1cc2cc(OCCCN3CCCCC3)ccc2n1Cc1ccccc1 | µM | 6.6
CCOC(=O)c1c(C)n(Cc2ccccc2)c2ccc(OCCCN)cc12 | µM | 12.5

Query block: What value of IC50 on Quinolone resistance protein NorA (Staphylococcus aureus, UniProt P0A0J7) does "CCOC(=O)c1c(C)n(Cc2cccc(C)c2)c2ccc(OCCCN3CCCCC3)cc12" have?
Result block: 6.1

Query block: What value of IC50 on Quinolone resistance protein NorA (Staphylococcus aureus, UniProt P0A0J7) does "CCOC(=O)c1c(C)n(Cc2ccccc2C)c2ccc(OCCCN3CCCCC3)cc12" have?
Result block: 4.8

Query block: What value of IC50 on Quinolone resistance protein NorA (Staphylococcus aureus, UniProt P0A0J7) does "CCOC(=O)c1c(C)n(Cc2ccccc2)c2ccc(OCCCCN)cc12" have?
Result block: 6.7

Query block: What value of IC50 on Quinolone resistance protein NorA (Staphylococcus aureus, UniProt P0A0J7) does "CCOC(=O)c1c(C)n(Cc2cccc(F)c2)c2ccc(OCCCN3CCCCC3)cc12" have?
Result block: 6.1

Query block: What value of IC50 on Quinolone resistance protein NorA (Staphylococcus aureus, UniProt P0A0J7) does "CCOC(=O)c1c(C)n(Cc2ccccc2)c2ccc(OCCCN3CCOCC3)cc12" have?
Result block: 10.6

Query block: What value of IC50 on Quinolone resistance protein NorA (Staphylococcus aureus, UniProt P0A0J7) does CCOC(=O)c1c(C)n(Cc2ccccc2)c2ccc(OCC(F)CN3CCCCC3)cc12 (centres undefined) have?
Result block: 5.1
